# credit: ChEMBL document CHEMBL3421618

System: Leishmania;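 further: enzyme assay on Leishmania CRK3/CYC6 kinase, histone H1 with radiolabelled ATP as substrates, 30 min incubation, inhibition relative to untreated control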
condition_description: at 30 µM
Description: Inhibition of Leishmania CRK3/CYC6 using histone H1/[gamma33-P]ATP as substrate at 30 uM after 30 mins relative to control
measured_parameter: inhibition (%)
Record the value in %, omitting the unit from your answer.

Some compounds with recorded inhibition:
{"columns": ["compound", "units_of_measure", "inhibition"],
 "data": [
  ["CC[C@H](CO)Nc1nc(Nc2ccc(S(N)(=O)=O)cc2)c2ncn(C(C)C)c2n1", "%", 2.2],
  ["CC[C@H](CO)Nc1nc(NCc2ccccc2N)c2ncn(C(C)C)c2n1", "%", 9.8],
  ["CC[C@H](CO)Nc1nc(NCc2cc(OC)c(O)c(OC)c2)c2ncn(C(C)C)c2n1", "%", 8.3]
]}

Quick one: inhibition of CC(C)n1cnc2c(NCc3ccccc3)nc(NCCCO)nc21 ?
49.2

Quick one: inhibition of CC[C@H](CO)Nc1nc(Nc2ccc(S(=O)(=O)Nc3nc(C)cc(C)n3)cc2)c2ncn(C(C)C)c2n1 ?
1.2

Quick one: inhibition of CC[C@H](CO)Nc1nc(NCc2ccccc2O)c2ncn(C(C)C)c2n1 ?
1.8

Quick one: inhibition of CC[C@H](CO)Nc1nc(NC(CO)c2ccccc2)c2ncn(C(C)C)c2n1 (some centres not stated) ?
33.5

Quick one: inhibition of CC(C)n1cnc2c(NCc3ccccc3O)nc(NCCCO)nc21 ?
10.5
